tested on: OVCAR-4 ovarian; test: NCI tumour cell line growth inhibition, 48 h
Measured property: TGI

What TGI value was documented for this compound, COc1cccc(/C=N/n2c(C)n[nH]c2=O)c1 ?
> 100 µM

What TGI value was documented for this compound, CC(C)NC(=O)OCCN=c1c2ccccc2ccc2ccccc12 ?
> 100 µM

What TGI value was documented for this compound, O=C(c1ccccc1)C1OC12C(=O)Nc1ccccc12 (stereo not drawn) ?
> 100 µM

What TGI value was documented for this compound, COc1ccc(OC)c2c(C(=O)O)c(Cc3ccccc3)ccc12 ?
> 100 µM

What TGI value was documented for this compound, Nc1ccn(C2CCC(CO)O2)c(=O)n1 (stereo not drawn) ?
> 1000 µM

What TGI value was documented for this compound, C1C[OH+]CC[OH+]CC[OH+]CC[OH+]CC[OH+]1.[Cl-].[V] ?
41.6 µM

What TGI value was documented for this compound, CCC/C(Cl)=N\OC(=O)Nc1ccc(OC(F)(F)F)cc1 ?
39.8 µM

What TGI value was documented for this compound, Cc1ccc2[nH]c(O)c(N=Nc3ccc(S(N)(=O)=O)cc3)c2c1 ?
> 25 µM

What TGI value was documented for this compound, CC(C)(C)c1cc(C(O)(C(F)(F)F)C(F)(F)F)c2c(c1)C(C(F)(F)F)(C(F)(F)F)OC(C(C)(C)C)N2 (stereo not drawn) ?
18 µM

What TGI value was documented for this compound, C=CCc1ccc(Oc2cc(CC=C)c3c(c2O)O[C@@H](CO)[C@H]3c2ccc(O)c(-c3cc(CC=C)ccc3O)c2)cc1 ?
> 100 µM

What TGI value was documented for this compound, O=S(=O)(Nc1cc(Sc2cccc3cccnc23)c(O)c2ccccc12)c1ccccc1 ?
1.75 µM

What TGI value was documented for this compound, Oc1cccc(-c2nc3cc(F)ccc3s2)c1 ?
52.3 µM

What TGI value was documented for this compound, CC1CCCC(CC(=O)O)(CC(=O)O)C1 (stereo not drawn) ?
> 100 µM

What TGI value was documented for this compound, Nc1ccc(C(=O)N2CCC[C@H]2CO)c(N)c1 ?
> 100 µM

What TGI value was documented for this compound, CN1COCc2c1ccc1cc3ccc4c(c3nc21)COCN4S(C)(=O)=O ?
> 100 µM

What TGI value was documented for this compound, O=c1cccc(C#CC#CC2=CCCCC2)o1 ?
> 49.3 µM

What TGI value was documented for this compound, CCNC(=O)Nc1cccc(NC(=O)NCC)n1 ?
> 100 µM

What TGI value was documented for this compound, CSC(C1c2ccccc2N(c2ccc(C)cc2)c2[nH]c(=O)n(C)c(=O)c21)S(=O)(=O)c1ccc(C)cc1 (stereo not drawn) ?
> 100 µM

What TGI value was documented for this compound, O=C1CCCC[C@H]1[C@H]1CCC[C@@H]([C@H]2CCCCC2=O)C1=O ?
> 100 µM

What TGI value was documented for this compound, N#CC1CC2(C1)OCCS2 (stereo not drawn) ?
> 100 µM

What TGI value was documented for this compound, Cc1ccc(O)c(-c2cscn2)c1 ?
> 100 µM

What TGI value was documented for this compound, COc1ccc(N2C(=O)CSC2c2c[nH]c3ccccc23)cc1 (stereo not drawn) ?
> 100 µM

What TGI value was documented for this compound, O=C1OC2CCCC[C@@H]2C2C[C@]34CCCCC3[C@@H](C(=O)O4)C12 (stereo partly drawn) ?
> 100 µM
